# GI50 per record follows
tested on: UO-31; test: NCI tumour cell line growth inhibition, 48 h
Active and inactive are the calls of the source. Cut-off read from the data, not from the text of the source: active = GI50 up to about 1.1 µM and inactive = higher.
Property label: GI50

Molecule	Result
O=C1Nc2ccc(Cl)cc2C(=O)N2CCC[C@@H]12	> 100 µM (inactive)
COc1ccc(CC2c3c(cc(OC)c(OC)c3OC)CCN2C)cc1OC (stereo not drawn)	> 100 µM (inactive)
O=C1CC(=O)N(c2ccccc2)N1/C(=C/c1ccccc1)c1ccccc1	15.7 µM (inactive)

====

test system: NCI-H23; assay: NCI tumour cell line growth inhibition, 48 h
Calls of active or inactive are those of the source. Cut-off read from the data, not from the text of the source: active = GI50 up to about 1.1 µM and inactive = higher.
Outcomes: YES = active, NO = inactive

Compound	Experimental target	Assigned label
CN(C)C(=O)CO/N=C1/C(=C2/C(=O)Nc3ccccc32)Nc2ccccc21	NCI-H23	NO
COc1ccc(/C(=C/n2ccnc2)C(O)c2ccc(OC)c(OC)c2)cc1OC (stereo not given)	NCI-H23	NO
COc1ccc(/C=c2\s/c(=C3/SC(=S)N(c4ccccc4)C3=O)n(-c3ccccc3)c2=O)cc1	NCI-H23	NO
O=C1c2ccccc2C(=O)c2[nH]cnc21	NCI-H23	NO
CCCCCCCCCCCCCCCCOP(=O)(O)OP(=O)(O)OCC1OC(n2cnc3c(N)ncnc32)C(O)C1O (stereo not given)	NCI-H23	NO
CCOC(=O)Oc1cc2c(c(OC)c1OC)-c1ccc(OC)c(=O)cc1C(NC(C)=O)CC2 (stereo not given)	NCI-H23	YES
O=C1C[C@@H]2[C@@H](c3ccccc3)[C@@H]3C(=O)c4ccccc4NC(=O)[C@H]3[C@]2(O)c2ccccc2N1	NCI-H23	NO
CCOC(=O)CCCn1nnc(C(=O)OCC)c1C(=O)OCC	NCI-H23	NO
CCCCCCCCC(=O)CCCCCCCCC(=O)O	NCI-H23	NO
CC(C)(Br)C(Br)CCC(C)(Br)C(Br)CO (stereo not given)	NCI-H23	NO
